pEC50: recorded values
SYSTEM NAME: human CB2 receptors (Homo sapiens, UniProt P34972)
Construct: expressed in transfected cells; host or cells: CHO cells
Sequence (P34972 whole entry): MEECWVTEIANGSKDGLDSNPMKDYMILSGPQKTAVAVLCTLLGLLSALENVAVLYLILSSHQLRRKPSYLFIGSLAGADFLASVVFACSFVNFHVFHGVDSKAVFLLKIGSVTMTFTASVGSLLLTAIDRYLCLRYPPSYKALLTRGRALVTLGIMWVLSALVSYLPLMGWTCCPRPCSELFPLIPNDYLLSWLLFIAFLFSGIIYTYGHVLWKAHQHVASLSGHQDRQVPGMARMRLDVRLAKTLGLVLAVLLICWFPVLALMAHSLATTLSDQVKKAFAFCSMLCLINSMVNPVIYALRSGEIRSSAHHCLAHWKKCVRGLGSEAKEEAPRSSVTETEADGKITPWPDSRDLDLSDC
ASSAY OVERVIEW: cAMP assay
Assay type: cell-based
pEC50: −log10 of the molar value.

{"COMPOUND": "CC(C)(C)c1nc(N2CC[C@H](O)C2)c2nn(Cc3ccccc3S(C)(=O)=O)nc2n1 [Example 80]", "SYSTEM NAME": "human CB2 receptors (Homo sapiens, UniProt P34972)", "pEC50": 7.99}
{"COMPOUND": "CC(C)(C)c1nc(N2CCC(F)(F)C2)c2nn(Cc3ccccc3Br)nc2n1 [Example 21]", "SYSTEM NAME": "human CB2 receptors (Homo sapiens, UniProt P34972)", "pEC50": 10.00}
{"COMPOUND": "Cc1nnc(Cn2nc3nc(C(C)(C)C)nc(N4CCC(F)(F)C4)c3n2)n1C [Example 83]", "SYSTEM NAME": "human CB2 receptors (Homo sapiens, UniProt P34972)", "pEC50": 8.21}
{"COMPOUND": "CC(C)(C)c1nc(N2CCC(F)(F)C2)c2nn(Cc3ccncc3)nc2n1 [Example 17]", "SYSTEM NAME": "human CB2 receptors (Homo sapiens, UniProt P34972)", "pEC50": 9.10}

----------
SYSTEM NAME: human CB1 receptors (Homo sapiens)
Construct: expressed in transfected cells; host or cells: CHO cells
Sequence (P21554 whole entry): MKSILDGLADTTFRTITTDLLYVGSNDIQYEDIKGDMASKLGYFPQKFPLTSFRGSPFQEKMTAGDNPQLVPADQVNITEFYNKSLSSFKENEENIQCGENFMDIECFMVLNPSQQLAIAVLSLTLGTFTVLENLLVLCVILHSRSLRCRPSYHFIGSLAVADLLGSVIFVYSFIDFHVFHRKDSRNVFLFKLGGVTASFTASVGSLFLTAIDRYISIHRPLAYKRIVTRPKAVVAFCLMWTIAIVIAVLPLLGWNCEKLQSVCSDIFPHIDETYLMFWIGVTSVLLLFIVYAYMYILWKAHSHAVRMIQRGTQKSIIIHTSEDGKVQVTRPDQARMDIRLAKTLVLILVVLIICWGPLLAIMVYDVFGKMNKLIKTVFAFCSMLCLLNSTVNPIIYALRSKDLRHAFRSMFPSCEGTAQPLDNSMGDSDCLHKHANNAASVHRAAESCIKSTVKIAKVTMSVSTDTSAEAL
ASSAY OVERVIEW: cAMP assay
Format: cell-based
pEC50: −log10 of the molar value.

{"SMILES TEXT": "Cc1noc(Cn2nc3nc(C(C)(C)C)nc(N4CC[C@](C)(O)C4)c3n2)n1", "SYSTEM NAME": "human CB1 receptors (Homo sapiens)", "pEC50": "< 5.00"}
{"SMILES TEXT": "CC(C)(C)c1nc(N2CCC(F)(F)C2)c2nn(Cc3ccncc3Cl)nc2n1", "SYSTEM NAME": "human CB1 receptors (Homo sapiens)", "pEC50": 6.63}
{"SMILES TEXT": "CC(C)(C)c1nc(N2CCC(F)(F)C2)c2nn(Cc3ccc(Cl)cc3Cl)nc2n1", "SYSTEM NAME": "human CB1 receptors (Homo sapiens)", "pEC50": "< 5.00"}
{"SMILES TEXT": "Cc1nc(Cn2nc3nc(C(C)(C)C)nc(N4CCC(F)(F)C4)c3n2)n(C)n1", "SYSTEM NAME": "human CB1 receptors (Homo sapiens)", "pEC50": "< 5.00"}
{"SMILES TEXT": "C[C@H](Oc1nc(N2CCC(F)(F)C2)c2nn(Cc3nnnn3C)nc2n1)C(F)(F)F", "SYSTEM NAME": "human CB1 receptors (Homo sapiens)", "pEC50": "< 5.00"}
{"SMILES TEXT": "Cc1nnc(Cn2nc3nc(C(C)(C)C)nc(N4CC(F)(F)C(F)(F)C4)c3n2)o1", "SYSTEM NAME": "human CB1 receptors (Homo sapiens)", "pEC50": "< 5.00"}
{"SMILES TEXT": "Cc1nc(Cn2nc3nc(C(C)(C)C)nc(N4CCC(F)(F)C4)c3n2)no1", "SYSTEM NAME": "human CB1 receptors (Homo sapiens)", "pEC50": 5.79}
{"SMILES TEXT": "Cc1noc(Cn2nc3nc(O[C@@H](C)C(F)(F)F)nc(N4CCC(F)(F)C4)c3n2)n1", "SYSTEM NAME": "human CB1 receptors (Homo sapiens)", "pEC50": "< 5.00"}
